Test system: ACHN renal
PROCEDURE_DETAILS: NCI-60 one-dose screen, 48 h
REPORTED_CONDITIONS: 10 µM unless noted
This is part of a sample that, as a whole, favours compounds with a hit. Of some 83,000 tested, about 20% had one in any assay. Calls of active or inactive are those of the source. Rule for the calls: active = growth percent below 10; inactive = the rest.
Hi there, use one of these labels in your reply, thanks! active, inactive

Query: How did this test come out for `CCCCC[C@H]1C/C=C2/C(=O)C=C[C@@H]2C/C=C\CCCC(=O)O1` ?
Response: active

Query: recorded result category for `Cn1cccc1-c1nc2c3c(ccc2[nH]1)C(=O)c1ccccc1C3=O` in this test
Response: inactive

Query: What did this assay record as the result for `CCN(CC)CCCCNc1c2ccc(Cl)cc2nc2ccc(OC)cc12` ?
Response: active

Query: Call for entry `C=CC(=O)Nc1cccc(Nc2nc(SC)nc(-c3cccc([N+](=O)[O-])c3)c2C#N)c1` :
Response: inactive

Query: Outcome logged for `C=C1c2nc3ccccc3n2C=C(c2cccc(Cl)c2)N1Cc1ccc(OC)cc1` in this assay:
Response: inactive

---
Query: Which outcome did this test record for the compound `COC(=O)c1ccc(NC(=O)c2ccc(-c3cccc([N+](=O)[O-])c3)o2)cc1` ?
Response: inactive

Query: Could you kindly confirm the outcome this assay logged for `Cn1c(NCCc2ccc(O)c(O)c2)nc2c1c(=O)n(Cc1ccc(Br)cc1)c(=O)n2C` ?
Response: inactive

Query: Returns: the outcome recorded for `Cc1nc2c3c(-c4ccccc4)c(-c4ccccc4)oc3ncn2n1` in this assay.
Response: inactive

Query: Which outcome was assigned to `N#Cc1c(N)n(CCNC(=O)c2ccccc2)c2nc3ccccc3nc12` in this test?
Response: inactive

Query: Each compound tested received a call. Report the one for `Cc1nc(/N=C(\N)NC(=O)Nc2cccc([N+](=O)[O-])c2)sc1C` .
Response: inactive

* * *

System: T-47D breast
PROCEDURE_DETAILS: NCI-60 one-dose screen, 48 h
REPORTED_CONDITIONS: 10 µM unless noted
This is part of a sample that, as a whole, favours compounds with a hit. Of some 83,000 tested, about 20% had one in any assay. Active and inactive are the calls of the source. How the source made its calls: active means growth percent below 10; inactive means the rest.
Give your call using only these classes: active, inactive

Consider the worked cases shown below.
Query: Which result was noted for this molecule in the test: COc1ccc(C2Nc3c(c(C(C)(C)C)nn3-c3ccccc3)C(=O)CS2)cc1 (stereo not given)
Response: inactive

Query: Tell me the assay call for `COc1cc(/C=C/C(=O)c2cccnc2Nc2ccc(F)cc2)cc(OC)c1OC` please.
Response: inactive

Query: Recorded test outcome, item `COc1cc2c(cc1O)CC[C@@H]1[C@@H]2CC[C@]2(C)[C@@H](NCCN(C)C)CC[C@@H]12`
Response: active

Query: Test call, this molecule: `Cn1cc(-c2nonc2-c2c[nH]c3ccc(F)cc23)c2cccnc21`
Response: inactive

As a next step, examine the molecule that follows.
Query: What is the recorded call for this molecule in the test? `O=C1Nc2c(ccc(Cl)c2Cl)/C1=C\c1cc(C(F)(F)F)cc(C(F)(F)F)c1`
Response: active

* * *

Test system: SW-620 colon
PROCEDURE_DETAILS: NCI-60 one-dose screen, 48 h
REPORTED_CONDITIONS: 10 µM unless noted
About 83,000 compounds went through this panel and 20% of them were active in at least one assay; those are over-represented in the sample as a whole. Calls of active or inactive are those of the source. Rule for the calls: active = growth percent below 10; inactive = the rest.
Give your call using only these classes: yes (active), no (inactive)

Query: Write down the call the test reported for this compound. Item: `Cc1ccc(NS(=O)(=O)c2ccc(-c3cnc(C4CC4)o3)cc2)cc1C`
Response: no

Query: What outcome does the record of this test show for `Clc1ccc2c(NCCNc3nc(N4CCCCC4)nc4ccccc34)ccnc2c1` ?
Response: yes

---
Query: Outcome logged for `COc1cc2c(cc1-c1c(C)noc1C)ncc1nc(C3CCC(F)(F)CC3)n([C@H](C)COC(F)F)c12` in this assay:
Response: no

Query: Recorded call for `C=CC(=O)Nc1cccc(Nc2nc(SC)nc(-c3cccc([N+](=O)[O-])c3)c2C#N)c1` ?
Response: no

Query: Fill in: this test's call for `CSc1nc(Nc2cccc(NC(=O)CCl)c2)c(C#N)c(-c2cccc([N+](=O)[O-])c2)n1` is ___
Response: yes

* * *

Test system: KM12 colon
PROCEDURE_DETAILS: NCI-60 one-dose screen, 48 h
REPORTED_CONDITIONS: 10 µM unless noted
Compounds without any hit were thinned out: in the full panel of roughly 83,000, 20% have a hit. Calls of active or inactive are those of the source. The calls were made as follows: active = growth percent below 10; inactive = the rest.
# output must be one of active, inactive

Query: Lab log entry: `CC(C)n1c(/C=C/[C@@H](O)C[C@@H](O)CC(=O)O)c(-c2ccc(F)cc2)c2ccccc21` — outcome as called in the assay?
Response: inactive

Query: Please indicate how the test categorized `COc1ccc2c(c1)C(=O)/C(=C/c1ccccn1)CC2` .
Response: active

Query: // return assay outcome for `Cc1ccccc1COc1ccc(-c2ccnn2-c2ccc(Cl)cc2)cc1`
Response: inactive

Query: Would you mind telling me which call this test gave `Cc1nn(-c2cc(=O)[nH]c3ccccc23)c(N)c1C#N` ?
Response: inactive

Could you now consider this next compound?
Query: Returns: the outcome recorded for CC(=O)O[C@H]1[C@@H]2OC(=O)C(CSc3ccccc3)[C@@H]2C[C@H]2O[C@]2(C)CC/C=C(\C)CCC[C@@H]1C (stereo not given in full) in this assay.
Response: inactive

* * *

Test system: SW-620 colon
PROCEDURE_DETAILS: NCI-60 one-dose screen, 48 h (100 = growth as untreated, 0 = no growth, -100 = all killed)
REPORTED_CONDITIONS: 10 µM unless noted
This is part of a sample that, as a whole, favours compounds with a hit. Of some 83,000 tested, about 20% had one in any assay.
rule met if growth is below 80%. rule not met if not; exact matches included in rule not met.

Query: Does the reported growth of the following compound sit strictly below 80%? C/C1=C\CC[C@@]2(C)O[C@H]2[C@H]2OC(=O)C(CN3CCN(CC4C(=O)O[C@H]5[C@H]4CC/C(C)=C/CC[C@@]4(C)O[C@@H]54)CC3)[C@@H]2CC1 (some centres undefined)
Response: rule not met

Query: State whether 80% exceeds growth recorded for `CCOC(=O)n1cc(-c2nonc2-c2cn(C)c3ncccc23)c2cc(F)ccc21` .
Response: rule not met

Query: Please state whether growth is below 80% for NC(CSC(c1ccccc1)(c1ccccc1)c1ccc(Cl)cc1)C(=O)O (centres undefined)
Response: rule met

Query: Bench note: check whether `CCN(CC)CCCCNc1c2ccc(Cl)cc2nc2ccc(OC)cc12` shows growth below 80%
Response: rule met

Query: Given `FC(F)(F)c1[nH]ncc1-c1nc2ccc3n[nH]c(C#Cc4cccnc4)c3c2c2c1CCCC2` , is recorded growth strictly lower than 80%?
Response: rule met

Query: Given `CN(C)CCN1C(=O)c2cccc3c(N)ccc(c23)C1=O` , is recorded growth strictly lower than 80%?
Response: rule met

Query: Answer whether the compound `Cc1cc(N2CCN(c3ccnc4cc(Cl)ccc34)CC2)nc(NC2CCCCC2)n1` has growth strictly less than 80%
Response: rule met

Attention now shifts to the item below.
Query: Dear colleague, could you confirm whether growth of `COc1ccc(C(=O)COc2ccc(/C=C3\Oc4ccc(OC)cc4C3=O)cc2)cc1` falls below 80%? Thanks.
Response: rule not met

* * *

compounds and their reported growth
Tested on: OVCAR-3 ovarian
PROCEDURE_DETAILS: NCI-60 one-dose screen, 48 h (100 = growth as untreated, 0 = no growth, -100 = all killed)
REPORTED_CONDITIONS: 10 µM unless noted
Description: Growth inhibition of the OVCAR-3 human tumor cell line is measured as a screen for anti-cancer activity. Cells are grown in 96 well plates and exposed to the test compound for 48 hours. Compounds are tested at a single concentration, which is 10^-5 M for most compounds. The reported endpoint is percent growth (GI% or GIPRCNT), where numbers from 0 - 100% represent growth inhibition, and numbers from -100% - 0 represent cell death. For example, a value of 40 represents 60% growth inhibition. […]
This is part of a sample that, as a whole, favours compounds with a hit. Of some 83,000 tested, about 20% had one in any assay. Calls of active or inactive are those of the source. Rule for the calls: active = growth percent below 10; inactive = the rest.

Entry `COc1ccc(/C=C\c2cc(OC)c(OC)c(OC)c2)cc1OC(=O)c1cccc(Cn2cc(CCOC(=O)[C@H](N)Cc3cn(C)c4ccccc34)nn2)c1` , growth reported as 1.65% (active)

Form: compound = `C(=N/Nc1ncc(-c2cc3cc(-c4ccccc4)ccc3o2)s1)/c1cccs1` ; growth = 97.1% (inactive)

Record summary for `CCNC(=O)Oc1ccc(/C(=C(\C)c2ccc(Cl)cc2)c2ccc(OCCN(CC)CC)cc2)cc1` : reported growth = 53.9% (inactive)

Noted for COc1ccc(C2Nc3c(c(C(C)(C)C)nn3-c3ccccc3)C(=O)CS2)cc1 (configuration not stated) : its growth reads 101% (inactive)

Form: compound = `N#Cc1nnn(-c2ccc(S(N)(=O)=O)cc2)c1NC(=O)CCl` ; growth = 106% (inactive)

Next:
Value of growth reported for the compound `COc1ccc2[nH]cc(-c3noc(C(=O)c4cn(C)c5ccc(F)cc45)n3)c2c1` is 97.5% (inactive)

Lookup result for `O=C1/C(=C/c2ccc(Cl)cc2)SC(=S)N1CCc1ccc(O)cc1` ; measured growth: 98.2% (inactive)

// growth lookup, compound = `CN1CCN(c2nc(NCCCCNc3ccnc4cc(Cl)ccc34)c3ccccc3n2)CC1` , result: 76.6% (inactive)
